# Experiment Description: in vivo
# Set-up: species or system male Beagle dogs
# Setup Conditions: dog, plasma, po, Reference Example 4 (soft capsule of Example 2 suspension), read-out: BA
Result Type: bioavailability (%)
Respond with the bare value in %.

query: Read the entry "CS(=O)(=O)O.CS(=O)(=O)O.N=C(N)Nc1ccc(C(=O)Oc2ccc3cc(C(=N)N)ccc3c2)cc1" and write its reported bioavailability.
result: 3.2

* * *

# Experiment Description: in vivo
# Set-up: species or system male Sprague-Dawley rats
# Setup Conditions: rat, MCM8 (INVENTION), 5 mg/0.5 ml/animal, 5 minutes after, read-out: Remaining ratio of the active ingredient in small intestine
Result Type: remaining at 5 min (%)
Respond with the bare value in %.

query: Read the entry N=C(N)c1ccc2cc(OC(=O)c3ccc(N=C(N)N)cc3)ccc2c1 [Compound B, dimethanesulfonate] and write its reported remaining at 5 min.
result: 90

* * *

# Experiment Description: in vivo
# Set-up: species or system male Sprague-Dawley rats
# Setup Conditions: rat, MCT8 (INVENTION), 5 mg/0.5 ml/animal, 15 minutes after, read-out: Remaining ratio of the active ingredient in small intestine
Result Type: remaining at 0.25 h (%)
Respond with the bare value in %.

query: Read the entry N=C(N)c1ccc2cc(OC(=O)c3ccc(N=C(N)N)cc3)ccc2c1 [Compound B, dimethanesulfonate] and write its reported remaining at 0.25 h.
result: 60.8

* * *

# Experiment Description: in vivo
# Design: species or system male Sprague-Dawley rats
# Setup Conditions: rat, H2O (COMPARISON), 5 mg/0.5 ml/animal, 5 minutes after, read-out: Remaining ratio of the active ingredient in small intestine
Result Type: remaining at 5 min (%)
Respond with the bare value in %.

query: Read the entry N=C(N)c1ccc2cc(OC(=O)c3ccc(N=C(N)N)cc3)ccc2c1 [Compound B, dimethanesulfonate] and write its reported remaining at 5 min.
result: 68.8

* * *

# Experiment Description: in vivo
# Parameters: species or system male Sprague-Dawley rats
# Setup Conditions: rat, MCT8 (INVENTION), 5 mg/0.5 ml/animal, 5 minutes after, read-out: Remaining ratio of the active ingredient in small intestine
Result Type: remaining at 5 min (%)
Respond with the bare value in %.

query: Read the entry N=C(N)c1ccc2cc(OC(=O)c3ccc(N=C(N)N)cc3)ccc2c1 [Compound B, dimethanesulfonate] and write its reported remaining at 5 min.
result: 80

* * *

# Experiment Description: in vivo
# Parameters: species or system male Sprague-Dawley rats
# Setup Conditions: rat, H2O (COMPARISON), 5 mg/0.5 ml/animal, 15 minutes after, read-out: Remaining ratio of the active ingredient in small intestine
# Description: The inhibitory effect of MCG on the degradation of esters of guanidinobenzoic acid in small intestine The experiment was carried out according to the Yasuhara's method using intestinal loop in rats [see Journal of Pharmacobio-Dynamics, 2, 251 (1979)]. That is, male Sprague-Dawley rats weighing 220-260 g were fasted an overnight prior to surgery; however drinking water was readily accessible. The rats were anesthetized by sodium pentobarbital using an intraperitoneal injection of 50 mg/kg. […]
Result Type: remaining at 0.25 h (%)
Respond with the bare value in %.

query: Read the entry N=C(N)c1ccc2cc(OC(=O)c3ccc(N=C(N)N)cc3)ccc2c1 [Compound B, dimethanesulfonate] and write its reported remaining at 0.25 h.
result: 27.5

* * *

# Experiment Description: in vivo
# Set-up: species or system male Beagle dogs
# Setup Conditions: dog, plasma, po, 10 mg/kg, Comparison A (10 mg/5 ml of water/kg body weight), read-out: BA
Result Type: bioavailability (%)
Respond with the bare value in %.

query: Read the entry CN(C)C(=O)COC(=O)Cc1ccc(OC(=O)c2ccc(NC(=N)N)cc2)cc1.CS(=O)(=O)O [Compound A] and write its reported bioavailability.
result: 6.3
